- TEST SYSTEM: human orexin 2 receptor (Homo sapiens (Human), UniProt O43614)
- Sequence (O43614 whole entry): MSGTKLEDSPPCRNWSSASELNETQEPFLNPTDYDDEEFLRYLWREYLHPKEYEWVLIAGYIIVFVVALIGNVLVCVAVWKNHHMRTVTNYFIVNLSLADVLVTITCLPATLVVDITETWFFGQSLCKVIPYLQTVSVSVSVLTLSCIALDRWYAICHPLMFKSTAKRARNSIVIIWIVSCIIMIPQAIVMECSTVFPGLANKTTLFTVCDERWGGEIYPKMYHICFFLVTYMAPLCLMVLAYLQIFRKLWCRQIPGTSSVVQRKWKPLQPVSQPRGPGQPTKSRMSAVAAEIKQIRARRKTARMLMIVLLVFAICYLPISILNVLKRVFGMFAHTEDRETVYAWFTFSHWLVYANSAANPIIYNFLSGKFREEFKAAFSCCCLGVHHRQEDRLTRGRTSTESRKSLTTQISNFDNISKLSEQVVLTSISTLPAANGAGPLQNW
- TEST SUMMARY: Human orexin 2 receptor radioligand binding ([3H]-EMPA)
OBSERVABLE: Ki

Req: Report value only: Ki, human orexin 2 receptor (Homo sapiens (Human), UniProt O43614), "Cc1ccc(C(=O)N2CCC[C@@H](Nc3cnc(C(F)(F)F)cn3)[C@@H]2C)c(-n2nccn2)n1"
Resp: > 10 µM

====

Record set of pKi for target or system UniProt:O43613.
Where a name gives a salt, the structure may show the parent alone.
Scale note: pKi = -log10(concentration in M).

CCOc1ccccc1C(=O)N1CCC[C@@H](Nc2ccc(Br)cn2)[C@@H]1C (racemic) [Example 44]    7.14
C[C@H]1[C@H](Nc2ccc(C(F)(F)F)nn2)CCCN1C(=O)c1ccccc1-n1nccn1 (racemic) [Example 33, hydrochloride]    6.80
Cc1ccc(-c2ncccn2)c(C(=O)N2CCC[C@@H](Nc3ccc(C(F)(F)F)cn3)[C@@H]2C)n1 (racemic) [Example 23, hydrochloride]    7.64
Cc1ccc(C(=O)N2CCC[C@@H](Nc3ccc(C(F)(F)F)cn3)[C@@H]2C)c(-n2nccn2)c1 (racemic) [Example 13]    8.05
C[C@H]1[C@H](Nc2ncc(Cl)cn2)CCCN1C(=O)c1ccccc1-n1nccn1 (racemic) [Example 30]    7.27
C[C@H]1[C@H](Oc2ncc(C(F)(F)F)cn2)CCCN1C(=O)c1ccccc1-n1nccn1 [Example 103]    7.01

Let us examine a further case.
Req: Note pKi for the compound shown: Cc1cnc(C(=O)N2CCC[C@@H](Nc3ccc(Br)cn3)[C@@H]2C)c(-c2ncco2)c1 [Example 80]
Resp: 7.62

====

Where a name gives a salt, the structure may show the parent alone.
// each record: one item and its Ki for human orexin 1 receptor (Homo sapiens)
Write down the value, and be sure its unit follows.

Some solved cases for reference:
Cc1ccc(C(=O)N2CCC[C@@H](Nc3ccc(Cl)cn3)[C@@H]2C)c(-n2nccn2)c1    15 nM
Cc1ccc(C(=O)N2CCC[C@@H](Nc3ncc(C(F)(F)F)cn3)[C@@H]2C)c(-n2nccn2)n1    112 nM
C[C@H]1[C@H](Nc2ccc(C(F)(F)F)cn2)CCCN1C(=O)c1cc(Cl)ccc1-n1nccn1 (racemic)    8 nM
CCOc1ccccc1C(=O)N1CCC[C@@H](Nc2ccc(C(F)(F)F)cn2)[C@@H]1C (racemic)    90 nM
C[C@H]1[C@H](Nc2cnc(C(F)(F)F)cn2)CCCN1C(=O)c1ccccc1-n1nccn1    10 nM
C[C@H]1[C@H](Nc2nc3cc(Cl)ccc3o2)CCCN1C(=O)c1ccccc1-n1nccn1 (racemic)    26 nM

Req: Look up and report measured Ki for this entry: Cc1ccc(-c2ncco2)c(C(=O)N2CCC[C@@H](Nc3ccc(C(F)(F)F)cn3)[C@@H]2C)n1 [Example 25, hydrochloride]
Resp: 19 nM

====

pKi values for the molecules below.
- TEST SYSTEM: human orexin 2 receptor (Homo sapiens (Human), UniProt O43614)
- TEST SUMMARY: Human orexin 2 receptor radioligand binding ([3H]-EMPA)
- TEST SETTINGS: HEK293 stably expressing human orexin 2 receptor; [3H]-EMPA; apparent Ki; read-out: hOX2 Ki
Where a name gives a salt, the structure may show the parent alone.
Kindly note that pKi refers to -log10 of the concentration in mol/L and answer with the value alone.

Req: Report pKi for COc1c(F)cccc1C(=O)N1CCC[C@@H](Nc2nccc(-c3ccccc3)n2)[C@@H]1C (racemic)
Resp: 5.57

Req: Return value of pKi for input Cc1cc(N[C@@H]2CCCN(C(=O)c3cc(F)ccc3-c3ncccn3)[C@H]2C)nc(C(F)(F)F)n1 (racemic) , no commentary.
Resp: 5.69

Req: Annotate the molecule COc1c(F)cccc1C(=O)N1CCC[C@@H](Nc2cnc3ccccc3n2)[C@H]1C (racemic) with its measured pKi.
Resp: 5.89

Req: Please list pKi recorded for the molecule "C[C@H]1[C@H](Nc2ccc(F)cn2)CCCN1C(=O)c1ccccc1-n1nccn1"
Resp: 6.15

Req: State its pKi: "Cc1ccc(C(=O)N2CCC[C@@H](Oc3ccc(C(F)(F)F)cn3)[C@@H]2C)c(-n2nccn2)c1"
Resp: 6.25

Req: Specify reported pKi for the molecule shown: "Cc1ccc(C(=O)N2CCC[C@@H](Nc3cnc(C(F)(F)F)cn3)[C@@H]2C)c(-n2ccnn2)n1"
Resp: 5.41

Req: Recall and state the measured pKi for "Cc1ccc(-c2ncccn2)c(C(=O)N2CCC[C@@H](Nc3ncc(C(F)(F)F)cn3)[C@@H]2C)n1" .
Resp: 6.36

Req: Find the measured pKi of "Cc1ccc(C(=O)N2CCC[C@@H](Oc3ncc(C(F)(F)F)cn3)[C@@H]2C)c(-n2nccn2)c1" and report it.
Resp: 5.28

Req: Recall and state the measured pKi for CCOc1ccccc1C(=O)N1CCC[C@@H](Nc2ccc(C(F)(F)F)cn2)[C@@H]1C (racemic) .
Resp: 5.85

Req: Quick one: give measured pKi for CCOc1ccccc1C(=O)N1CCC[C@@H](Nc2nccc(-c3ccccc3)n2)[C@@H]1C (racemic)
Resp: 7.24

Req: Identify the reported pKi for the following entry. Cc1ccc(-c2ncco2)c(C(=O)N2CCC[C@@H](Nc3ccc(C(F)(F)F)cn3)[C@@H]2C)n1 (racemic) [Example 22, hydrochloride]
Resp: 6.37

Req: Fill in reported pKi for this entry: C[C@H]1[C@H](Nc2cnc3ccccc3n2)CCCN1C(=O)c1ccccc1-n1nccn1 (racemic)
Resp: 7.02
